biological target: Cytochrome P450 3A4 (Homo sapiens, UniProt P08684); test: Inhibition of CYP3A4; type: ADME
Sequence (P08684 whole entry): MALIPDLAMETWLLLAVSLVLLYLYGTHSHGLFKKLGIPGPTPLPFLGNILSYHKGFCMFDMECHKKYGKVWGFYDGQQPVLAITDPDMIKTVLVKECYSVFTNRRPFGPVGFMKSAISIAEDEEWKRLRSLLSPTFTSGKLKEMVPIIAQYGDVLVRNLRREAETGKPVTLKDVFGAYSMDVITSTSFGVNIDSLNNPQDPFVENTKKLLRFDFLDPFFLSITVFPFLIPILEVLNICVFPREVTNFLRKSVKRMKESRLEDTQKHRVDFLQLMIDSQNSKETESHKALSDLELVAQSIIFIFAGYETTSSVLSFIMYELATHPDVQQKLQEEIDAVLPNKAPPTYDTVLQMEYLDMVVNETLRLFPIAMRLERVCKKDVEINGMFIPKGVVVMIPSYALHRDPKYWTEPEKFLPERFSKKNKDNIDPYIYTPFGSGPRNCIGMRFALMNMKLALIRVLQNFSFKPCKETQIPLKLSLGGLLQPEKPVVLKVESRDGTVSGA
assay endpoint: IC50

Below, 5 compounds whose answers are already recorded.
[[record]]
smiles_record = "NCC[C@@H]1Cc2ccccc2[C@H](c2ccc(Cl)c(Cl)c2)C1"
result = "> 25 µM"

[[record]]
smiles_record = "CN[C@@H]1Cc2ccccc2[C@H](c2ccc(Cl)c(Cl)c2)C1"
result = "> 25 µM"

[[record]]
smiles_record = "CN[C@H]1Cc2ccccc2[C@@H](c2ccc(Cl)c(Cl)c2)C1"
result = "17.1 µM"

[[record]]
smiles_record = "CNC[C@@H]1Cc2ccccc2[C@H](c2ccc(Cl)c(Cl)c2)C1"
result = "> 25 µM"

[[record]]
smiles_record = "CNC[C@@H]1Cc2ccccc2[C@@H](c2ccc(Cl)c(Cl)c2)C1"
result = "> 25 µM"


What does the record list as IC50 for "CN[C@H]1Cc2ccccc2[C@H](c2ccc(Cl)c(Cl)c2)C1" ?
> 25 µM

Thanks! And "CN[C@@H]1Cc2ccccc2[C@@H](c2ccc(Cl)c(Cl)c2)C1" ?
> 25 µM

Next entry: "CNC[C@H]1Cc2ccccc2[C@H](c2ccc(Cl)c(Cl)c2)C1"
20.1 µM

====

Quick reference for pIC50 among some compounds
target: Cytochrome P450 2C19 (Homo sapiens, UniProt P33261)
Sequence (P33261 whole entry): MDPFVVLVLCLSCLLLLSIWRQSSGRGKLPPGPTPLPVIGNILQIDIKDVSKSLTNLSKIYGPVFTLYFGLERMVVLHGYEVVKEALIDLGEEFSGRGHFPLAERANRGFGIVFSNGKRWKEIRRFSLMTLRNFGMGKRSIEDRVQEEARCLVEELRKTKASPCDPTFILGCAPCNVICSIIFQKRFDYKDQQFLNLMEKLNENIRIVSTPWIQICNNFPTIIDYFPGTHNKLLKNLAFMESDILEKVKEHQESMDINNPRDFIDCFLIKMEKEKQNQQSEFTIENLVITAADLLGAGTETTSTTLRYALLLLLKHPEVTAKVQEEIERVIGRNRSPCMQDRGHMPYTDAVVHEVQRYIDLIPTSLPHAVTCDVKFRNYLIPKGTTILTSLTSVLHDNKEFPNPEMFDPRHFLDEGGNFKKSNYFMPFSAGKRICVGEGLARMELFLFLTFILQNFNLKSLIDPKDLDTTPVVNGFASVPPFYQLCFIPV
pIC50 is a log-scale quantity: -log10 of the concentration expressed in molar.

Take a look at these entries with their results.
[[record]]
smiles_record = "CN[C@H]1Cc2ccccc2[C@@H](c2ccc(Cl)c(Cl)c2)C1"
numeric_readout = 4.99

[[record]]
smiles_record = "CNC[C@@H]1Cc2ccccc2[C@@H](c2ccc(Cl)c(Cl)c2)C1"
numeric_readout = 5.66

[[record]]
smiles_record = "CN[C@@H]1Cc2ccccc2[C@@H](c2ccc(Cl)c(Cl)c2)C1"
numeric_readout = 5.28


Field: pIC50 (Cytochrome P450 2C19 (Homo sapiens, UniProt P33261)). Entry: "NCC[C@H]1Cc2ccccc2[C@@H](c2ccc(Cl)c(Cl)c2)C1"
5.79

# iterate: "CNC[C@@H]1Cc2ccccc2[C@H](c2ccc(Cl)c(Cl)c2)C1"
5.22

Now the same for "CNC[C@H]1Cc2ccccc2[C@H](c2ccc(Cl)c(Cl)c2)C1"
5.11

====

target: Sodium-dependent dopamine transporter (Homo sapiens, UniProt Q01959); experiment: Inhibition of [3H]dopamine reuptake at human DAT expressed in CHOK1 cells by scintillation counting
Sequence (Q01959 whole entry): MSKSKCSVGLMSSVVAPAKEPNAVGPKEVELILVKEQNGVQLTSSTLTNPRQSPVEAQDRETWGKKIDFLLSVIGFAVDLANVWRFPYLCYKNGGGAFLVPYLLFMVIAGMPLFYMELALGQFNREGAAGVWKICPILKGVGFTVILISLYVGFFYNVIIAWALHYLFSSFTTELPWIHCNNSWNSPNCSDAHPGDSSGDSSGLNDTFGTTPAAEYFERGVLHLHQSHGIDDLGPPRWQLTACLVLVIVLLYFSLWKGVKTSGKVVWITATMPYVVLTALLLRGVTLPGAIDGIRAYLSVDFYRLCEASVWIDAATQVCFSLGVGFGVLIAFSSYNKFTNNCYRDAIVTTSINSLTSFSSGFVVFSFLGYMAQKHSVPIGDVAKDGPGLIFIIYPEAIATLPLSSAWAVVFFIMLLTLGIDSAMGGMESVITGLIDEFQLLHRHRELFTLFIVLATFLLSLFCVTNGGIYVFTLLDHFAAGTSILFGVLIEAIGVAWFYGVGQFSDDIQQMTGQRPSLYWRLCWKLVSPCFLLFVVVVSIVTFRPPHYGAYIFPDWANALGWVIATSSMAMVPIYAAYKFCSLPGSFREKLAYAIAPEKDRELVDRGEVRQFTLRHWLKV
assay endpoint: pIC50
# reply with the number alone; pIC50 is -log10 of concentration in mol/L

[[record]]
compound = "CN[C@@H]1Cc2ccccc2[C@H](c2ccc(Cl)c(Cl)c2)C1"
assay_endpoint = "pIC50"
numeric_readout = 6.55


Please report the recorded pIC50 for "CN[C@@H]1CCc2ccccc2[C@H]1c1ccc(Cl)c(Cl)c1" .
6.67

Now the compound "NCC[C@@H]1Cc2ccccc2[C@H](c2ccc(Cl)c(Cl)c2)C1"
7.49

Let us now turn to "N[C@@H]1Cc2ccccc2[C@@H](c2ccc(Cl)c(Cl)c2)C1"
6.39

Input "N[C@@H]1Cc2ccccc2[C@H](c2ccc(Cl)c(Cl)c2)C1"
6.05

Next record, please: CN(C)C[C@@H]1Cc2ccccc2[C@H](c2ccc(Cl)c(Cl)c2)C1 (racemic)
6.48

Again, but for CN(C)C[C@H]1Cc2ccccc2[C@H](c2ccc(Cl)c(Cl)c2)C1 (mixture of isomers)
6.47

Same read-out for "N[C@H]1Cc2ccccc2[C@@H](c2ccc(Cl)c(Cl)c2)C1" ?
6.76

# iterate: "CNC[C@@H]1Cc2ccccc2[C@H](c2ccc(Cl)c(Cl)c2)C1"
6.95

"CNC[C@@H]1Cc2ccccc2[C@@H](c2ccc(Cl)c(Cl)c2)C1" ?
6.99

Another compound to look at: "CN(C)[C@@H]1Cc2ccccc2[C@H](c2ccc(Cl)c(Cl)c2)C1"
6.56

Lookup "CN(C)[C@H]1Cc2ccccc2[C@@H](c2ccc(Cl)c(Cl)c2)C1"
6.50

Next record, please: "CNC[C@H]1Cc2ccccc2[C@@H](c2ccc(Cl)c(Cl)c2)C1"
6.32
